Assay: Pharmacokinetics of test compounds in SD rats (15.2; IV and PO, mixed administration)
Assay type: in vivo
Conditions: male, Sprague-Dawley, rat, plasma, PO, 3 mg/kg
measured.quantity: Cmax (ng/mL)

                            smiles_notation  unit_text  value_measured
0  COCCn1nnc(-c2ccc(CCNc3nc(N)n4nc(-c5ccco5)nc4n3)cc2)n1      ng/mL             538

* * *

Test: Pharmacokinetics of Compounds 27, 16, 14 and 22 in SD rats
Type: in vivo
Details: Sprague-Dawley, rat, in vivo, PO, dose 10 (mg/kg)
Entries and their AUC(0-t) values follow.
measured.quantity: AUC(0-t) (ng·h/mL)

                                   compound  unit_text  value_measured
0  Nc1nc(NCCc2ccc(OCCN3CC[C@H](F)C3)cc2)nc2nc(-c3ccco3)nn12 [Compound 16]    ng·h/mL             758
1  Nc1nc(NCCc2ccc(OCCN3CCC(F)(F)C3)cc2)nc2nc(-c3ccco3)nn12 [Compound 14]    ng·h/mL            1210
